Source listed as patent US12692254B2.

Please respond with reported pIC50 for every item in the list.
Biological target: human PAD4 (hPAD4) (Homo sapiens, UniProt Q9UM07)
Sequence (Q9UM07 whole entry): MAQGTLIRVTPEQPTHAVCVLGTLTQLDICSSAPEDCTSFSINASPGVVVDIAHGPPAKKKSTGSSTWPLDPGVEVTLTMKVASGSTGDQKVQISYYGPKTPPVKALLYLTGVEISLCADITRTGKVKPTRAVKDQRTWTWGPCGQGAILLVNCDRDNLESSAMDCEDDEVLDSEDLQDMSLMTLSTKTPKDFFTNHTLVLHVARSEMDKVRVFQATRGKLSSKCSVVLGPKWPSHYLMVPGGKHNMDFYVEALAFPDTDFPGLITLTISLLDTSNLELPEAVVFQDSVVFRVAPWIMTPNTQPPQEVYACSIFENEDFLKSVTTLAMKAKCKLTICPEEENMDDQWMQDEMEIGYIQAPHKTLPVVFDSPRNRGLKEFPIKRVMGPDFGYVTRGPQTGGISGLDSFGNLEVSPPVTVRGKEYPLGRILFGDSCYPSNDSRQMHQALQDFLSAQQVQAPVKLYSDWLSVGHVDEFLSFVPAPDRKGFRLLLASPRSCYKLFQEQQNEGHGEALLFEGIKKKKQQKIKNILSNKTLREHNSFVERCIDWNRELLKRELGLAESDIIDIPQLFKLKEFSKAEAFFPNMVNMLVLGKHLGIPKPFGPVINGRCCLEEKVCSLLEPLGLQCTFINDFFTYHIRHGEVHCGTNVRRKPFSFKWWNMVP
Test: RFMS human PAD4 functional assay (rapid-fire mass spectrum)
Details: 5 nM hPAD4 enzyme, 250 μM BAEE, 50 μM Calcium; 30 min preincubation, 90 min reaction at 37° C.
Numbers only, as −log10 of the molar value.

Would you please look over these solved cases?
{"Molecule": "Cn1cc(Cn2c(-c3cc4ccccc4n3CC3CC3)nc3cc(C(=O)N4C[C@H](N)C[C@@H](F)C4)cc(Cl)c32)cn1", "Readout Number": 6.23}
{"Molecule": "COc1cc(C(=O)N2CC3CCC2[C@@H]3N)cc2nc(-c3cc4ccccc4n3CC3CC3)n(CC3CCS(=O)(=O)C3)c12 (stereo partly drawn) [Example 290]", "Readout Number": 5.80}

Pending molecule:
The reported pIC50 of the molecule COc1cc(C(=O)N2CC3CCC2[C@@H]3N)cc2nc(-c3cc4cccnc4n3CC3CC3)n(Cc3cnn(-c4cccnc4)c3)c12 (stereo partly drawn) was 7.30

----------
Molecular target: human PAD4 (hPAD4) (Homo sapiens, UniProt Q9UM07)
Assay: RFMS human PAD4 functional assay (rapid-fire mass spectrum)
Conditions: 5 nM hPAD4 enzyme, 250 μM BAEE, 50 μM Calcium; 30 min preincubation, 90 min reaction at 37° C.
pIC50: −log10 of the molar value.
Classify as follows. Reported pIC50 greater than or equal to 7: Satisfied. Reported pIC50 below: Not satisfied.

A selection of reference data follows.
{"Compound": "COc1cc(C(=O)N2CC3CCC2[C@@H]3N)cc2nc(-c3cc4cccnc4n3CC3CC3)n(Cc3cnn(-c4ccccn4)c3)c12 (stereo partly drawn)", "Class Assignment": "Satisfied"}
{"Compound": "COc1ccccc1C(=O)N1CC(Cn2c(-c3cc4ccccc4n3CC3CC3)nc3cc(C(=O)N4C[C@H]5CC[C@@H]4[C@@H]5N)cc(OC)c32)C1", "Class Assignment": "Satisfied"}
{"Compound": "COc1cc(C(=O)N2C[C@H]3CC[C@@H]2[C@@H]3N)cc2nc(-c3cc4cccnc4n3CC3CC3)n(C3CN(c4cnc(C#N)nc4)C3)c12 [Example 82]", "Class Assignment": "Not satisfied"}
{"Compound": "COc1cc(C(=O)N2CC3CCC2[C@@H]3N)cc2nc(-c3cc4ccccc4n3CC3CC3)n(CC3CC(=O)N(C)C3)c12 (mixture of isomers) [Example 262]", "Class Assignment": "Satisfied"}
{"Compound": "COc1cc(C(=O)N2CC3CCC2[C@@H]3N)cc2nc(-c3cc4ccccc4n3CC3CC3)n(CC3CN(C(=O)[C@@H]4C[C@H]4c4ccccc4)C3)c12 (stereo partly drawn)", "Class Assignment": "Satisfied"}

## Task Could you please find out whether COc1cc(C(=O)N2C[C@H](N)C[C@@H](F)C2)cc2nc(-c3cc4cccnc4n3CC3CC3)n(Cc3cnn(-c4cccnc4O)c3)c12 has pIC50 that meets 7 or exceeds it?
## Result Satisfied

## Task Could you please find out whether COc1cc(C(=O)N2CC3CCC2[C@@H]3N)cc2nc(-c3cc4ccccc4n3CC3CC3)n(Cc3cnn(-c4cncc(F)c4)c3)c12 (stereo partly drawn) has pIC50 that meets 7 or exceeds it?
## Result Satisfied

## Task Could you please find out whether COc1cc(C(=O)N2C[C@H]3CC[C@@H]2[C@@H]3N)cc2nc(-c3cccn3CC3CC3)n(CC3CN(c4ccnc(C)n4)C3)c12 has pIC50 that meets 7 or exceeds it?
## Result Not satisfied

## Task Could you please find out whether COc1cc(C(=O)N2CC3CCC2[C@@H]3N)cc2nc(-c3cc4cccnc4n3CC3CC3)n(CC3CN(C(=O)c4cc(F)cc(F)c4)C3)c12 (stereo partly drawn) has pIC50 that meets 7 or exceeds it?
## Result Satisfied
